test system: UniProtKB Q8N4C8
Sequence (Q8N4C8 whole entry): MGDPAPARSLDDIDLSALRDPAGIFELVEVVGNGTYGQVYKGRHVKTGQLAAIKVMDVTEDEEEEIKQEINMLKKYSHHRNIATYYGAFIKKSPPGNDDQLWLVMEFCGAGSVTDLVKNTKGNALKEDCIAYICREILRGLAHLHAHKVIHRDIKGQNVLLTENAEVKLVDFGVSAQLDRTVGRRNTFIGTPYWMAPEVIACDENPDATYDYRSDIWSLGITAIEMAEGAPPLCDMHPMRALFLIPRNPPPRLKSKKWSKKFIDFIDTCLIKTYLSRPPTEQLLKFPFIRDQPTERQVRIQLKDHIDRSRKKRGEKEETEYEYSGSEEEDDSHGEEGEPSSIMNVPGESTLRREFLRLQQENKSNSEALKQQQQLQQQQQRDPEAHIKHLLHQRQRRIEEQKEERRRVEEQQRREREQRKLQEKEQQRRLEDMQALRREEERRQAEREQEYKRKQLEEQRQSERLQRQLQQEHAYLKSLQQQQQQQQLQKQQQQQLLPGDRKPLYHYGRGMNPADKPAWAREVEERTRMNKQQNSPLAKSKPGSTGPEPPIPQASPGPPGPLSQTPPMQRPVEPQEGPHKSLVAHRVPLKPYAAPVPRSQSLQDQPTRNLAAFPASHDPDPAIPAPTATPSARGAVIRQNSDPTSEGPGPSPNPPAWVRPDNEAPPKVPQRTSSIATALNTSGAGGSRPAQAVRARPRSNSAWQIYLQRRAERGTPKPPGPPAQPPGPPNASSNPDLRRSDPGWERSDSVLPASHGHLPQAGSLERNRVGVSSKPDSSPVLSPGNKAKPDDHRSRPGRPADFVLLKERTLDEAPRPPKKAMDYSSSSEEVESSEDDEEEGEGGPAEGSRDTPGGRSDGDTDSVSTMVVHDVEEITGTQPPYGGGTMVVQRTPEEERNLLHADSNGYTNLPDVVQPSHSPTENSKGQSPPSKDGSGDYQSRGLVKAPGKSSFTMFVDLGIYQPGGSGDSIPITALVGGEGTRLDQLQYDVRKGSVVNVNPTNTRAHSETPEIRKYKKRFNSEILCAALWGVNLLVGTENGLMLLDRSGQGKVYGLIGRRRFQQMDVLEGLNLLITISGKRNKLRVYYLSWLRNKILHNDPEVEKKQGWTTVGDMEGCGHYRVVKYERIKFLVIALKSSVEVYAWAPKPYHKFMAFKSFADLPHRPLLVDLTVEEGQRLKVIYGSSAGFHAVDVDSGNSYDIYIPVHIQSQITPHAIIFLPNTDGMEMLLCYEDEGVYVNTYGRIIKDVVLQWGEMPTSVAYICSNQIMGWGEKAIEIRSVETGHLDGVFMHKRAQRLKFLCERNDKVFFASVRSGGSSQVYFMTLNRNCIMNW
protocol: Kinase panel profiling at 1 µmol/L (MSA or IMAP), percentage inhibition
Type: biochemical
measurement parameters: MINK; 1 µmol/L single concentration; read-out: %-inhibition, MINK
property: inhibition at 1 µM (%)

smiles=COc1ccc(CN2C3CC2CN(c2ccc(-c4cc(OCC(C)(C)O)cn5ncc(C#N)c45)cn2)C3)cn1 uom=% observed_value=-5.33
smiles=CCc1nc(C(N)=O)c(Nc2ccc(N3CCC(N4CCN(C)CC4)CC3)c(OC)c2)nc1NC1CCOCC1 uom=% observed_value=80
smiles=CO[C@]1(C(=O)N[C@@H](C)c2ccc(-n3cc(F)cn3)nc2)CC[C@H](c2nc(C)cc(Nc3cc(C)[nH]n3)n2)CC1 uom=% observed_value=-3.43
smiles=Cn1cnc2c(F)c(Nc3ccc(Br)cc3F)c(C(=O)NOCCO)cc21 uom=% observed_value=-4.54
smiles=C[C@H]1Oc2cc(cnc2N)-c2c(nn(C)c2C#N)CN(C)C(=O)c2ccc(F)cc21 uom=% observed_value=-0.198
smiles=FC(F)(F)c1ccc(CNc2ccc(Cc3c[nH]c4ncc(Cl)cc34)cn2)cn1 uom=% observed_value=9
smiles=Cc1nc(NC(=O)N2CCC[C@H]2C(N)=O)sc1-c1ccnc(C(C)(C)C(F)(F)F)c1 uom=% observed_value=-2
smiles=Cn1cc(-c2cc3c(N4CCN(c5ncc([C@@](C)(N)c6ccc(F)cc6)cn5)CC4)ncnn3c2)cn1 uom=% observed_value=4.44

====

test system: panel of 255 wild-type kinases (Homo sapiens, UniProt Q9UK32)
Sequence (Q9UK32 whole entry): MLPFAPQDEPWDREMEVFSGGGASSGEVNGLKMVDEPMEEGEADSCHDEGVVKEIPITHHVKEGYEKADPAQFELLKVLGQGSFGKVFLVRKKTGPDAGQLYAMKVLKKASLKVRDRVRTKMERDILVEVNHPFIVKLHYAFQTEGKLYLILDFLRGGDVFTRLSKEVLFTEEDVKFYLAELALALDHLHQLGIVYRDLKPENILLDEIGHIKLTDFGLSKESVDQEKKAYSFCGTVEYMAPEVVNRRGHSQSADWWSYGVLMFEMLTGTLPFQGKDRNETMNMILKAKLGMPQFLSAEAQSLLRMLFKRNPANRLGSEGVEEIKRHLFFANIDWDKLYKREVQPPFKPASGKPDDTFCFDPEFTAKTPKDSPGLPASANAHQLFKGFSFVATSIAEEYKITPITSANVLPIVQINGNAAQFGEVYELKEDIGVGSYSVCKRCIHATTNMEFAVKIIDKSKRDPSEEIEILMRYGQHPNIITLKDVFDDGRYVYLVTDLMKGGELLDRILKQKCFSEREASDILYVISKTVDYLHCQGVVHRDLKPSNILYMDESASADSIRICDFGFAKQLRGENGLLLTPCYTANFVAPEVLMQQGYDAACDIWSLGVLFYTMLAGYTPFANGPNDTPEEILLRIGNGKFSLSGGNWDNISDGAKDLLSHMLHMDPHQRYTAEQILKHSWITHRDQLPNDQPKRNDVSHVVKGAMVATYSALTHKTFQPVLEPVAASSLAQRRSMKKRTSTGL
protocol: Kinase panel profiling at 1 µmol/L (MSA or IMAP), percentage inhibition
Format: biochemical
measurement parameters: kinase RSK4; 1 µmol/L single concentration; read-out: %-inhibition at 1 µmol/L, RSK4
Recorded inhibition at 1 µM for the following molecules
property: inhibition at 1 µM (%)

molecule="CCn1c(=O)c(-c2cc(NC(=O)Nc3ccccc3)c(F)cc2Br)cc2cnc(NC)cc21 [ripretinib]" observed_value=0.401
molecule="C[C@H]1Oc2cc(cnc2N)-c2c(nn(C)c2C#N)CN(C)C(=O)c2ccc(F)cc21 [lorlatinib]" observed_value=-2
molecule="Cn1cnc2c(F)c(Nc3ccc(Br)cc3Cl)c(C(=O)NOCCO)cc21 [selumetinib]" observed_value=5.4

====

Reported inhibition at 1 µM values follow for various compounds
test system: panel of 255 wild-type kinases (Homo sapiens, UniProt P29597)
Sequence (P29597 whole entry): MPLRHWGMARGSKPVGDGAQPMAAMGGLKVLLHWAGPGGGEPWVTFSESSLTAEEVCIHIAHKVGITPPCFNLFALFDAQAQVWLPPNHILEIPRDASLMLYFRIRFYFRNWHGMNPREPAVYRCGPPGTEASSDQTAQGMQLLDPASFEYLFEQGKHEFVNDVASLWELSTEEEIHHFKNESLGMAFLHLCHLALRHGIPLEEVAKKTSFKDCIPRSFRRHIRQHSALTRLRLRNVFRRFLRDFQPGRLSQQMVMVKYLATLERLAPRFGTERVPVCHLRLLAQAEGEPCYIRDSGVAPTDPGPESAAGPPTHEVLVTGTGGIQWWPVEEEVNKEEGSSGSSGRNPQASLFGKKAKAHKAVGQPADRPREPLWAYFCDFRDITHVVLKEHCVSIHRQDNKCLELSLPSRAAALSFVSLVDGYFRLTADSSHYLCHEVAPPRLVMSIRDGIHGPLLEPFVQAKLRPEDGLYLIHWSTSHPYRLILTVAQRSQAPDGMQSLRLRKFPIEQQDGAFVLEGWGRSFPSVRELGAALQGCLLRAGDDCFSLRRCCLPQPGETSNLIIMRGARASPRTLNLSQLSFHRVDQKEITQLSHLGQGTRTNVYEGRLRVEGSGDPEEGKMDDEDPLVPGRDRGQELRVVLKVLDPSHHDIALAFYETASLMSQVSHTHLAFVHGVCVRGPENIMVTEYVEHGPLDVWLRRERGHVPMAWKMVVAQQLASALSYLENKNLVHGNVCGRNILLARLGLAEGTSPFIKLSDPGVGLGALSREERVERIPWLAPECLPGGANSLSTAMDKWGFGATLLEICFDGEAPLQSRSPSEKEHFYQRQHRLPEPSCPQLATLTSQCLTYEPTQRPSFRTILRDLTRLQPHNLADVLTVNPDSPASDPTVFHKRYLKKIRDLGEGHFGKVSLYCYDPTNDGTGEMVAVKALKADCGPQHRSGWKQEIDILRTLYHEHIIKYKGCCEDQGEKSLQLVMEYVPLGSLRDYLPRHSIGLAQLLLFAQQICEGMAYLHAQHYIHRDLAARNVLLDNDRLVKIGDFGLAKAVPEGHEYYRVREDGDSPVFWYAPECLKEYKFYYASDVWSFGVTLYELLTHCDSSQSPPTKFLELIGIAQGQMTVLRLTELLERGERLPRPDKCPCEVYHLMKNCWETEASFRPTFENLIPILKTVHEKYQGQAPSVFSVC
protocol: Kinase panel profiling at 1 µmol/L (MSA or IMAP), percentage inhibition
Format: biochemical
measurement parameters: kinase TYK2; 1 µmol/L single concentration; read-out: %-inhibition at 1 µmol/L, TYK2
property: inhibition at 1 µM (%)

smiles=C[C@H](Nc1ncnc2nc[nH]c12)c1cc2cccc(Cl)c2c(=O)n1-c1ccccc1 uom=% observed_value=2.8
smiles=O=C(Nc1cnn2ccc(N3CCC[C@@H]3c3cc(F)ccc3F)nc12)N1CC[C@H](O)C1 uom=% observed_value=-0.368
smiles=CCc1nc(C(N)=O)c(Nc2ccc(N3CCC(N4CCN(C)CC4)CC3)c(OC)c2)nc1NC1CCOCC1 uom=% observed_value=70

====

test system: panel of 255 wild-type kinases (Homo sapiens, UniProt Q8IY84)
Sequence (Q8IY84 whole entry): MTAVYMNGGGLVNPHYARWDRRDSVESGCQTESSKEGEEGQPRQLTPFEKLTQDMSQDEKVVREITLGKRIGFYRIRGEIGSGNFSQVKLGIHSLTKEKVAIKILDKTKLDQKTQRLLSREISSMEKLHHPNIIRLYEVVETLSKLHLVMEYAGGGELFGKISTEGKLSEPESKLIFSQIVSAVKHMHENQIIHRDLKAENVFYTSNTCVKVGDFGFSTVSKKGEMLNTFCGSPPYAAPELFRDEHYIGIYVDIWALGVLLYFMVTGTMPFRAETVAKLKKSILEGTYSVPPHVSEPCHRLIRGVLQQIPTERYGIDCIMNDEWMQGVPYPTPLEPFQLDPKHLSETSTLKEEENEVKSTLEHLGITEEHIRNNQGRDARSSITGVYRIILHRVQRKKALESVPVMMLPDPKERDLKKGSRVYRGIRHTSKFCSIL
protocol: Kinase panel profiling at 1 µmol/L (MSA or IMAP), percentage inhibition
Format: biochemical
measurement parameters: NIM1K; 1 µmol/L single concentration; read-out: %-inhibition, NIM1K
property: inhibition at 1 µM

compound="Cn1cnc2c(F)c(Nc3ccc(Br)cc3F)c(C(=O)NOCCO)cc21 [binimetinib]" property="inhibition at 1 µM" observed_value=-2.23%
compound="Cn1cc(-c2cc3c(N4CCN(c5ncc([C@@](C)(N)c6ccc(F)cc6)cn5)CC4)ncnn3c2)cn1 [avapritinib]" property="inhibition at 1 µM" observed_value=0.427%
compound="CO[C@]1(C(=O)N[C@@H](C)c2ccc(-n3cc(F)cn3)nc2)CC[C@H](c2nc(C)cc(Nc3cc(C)[nH]n3)n2)CC1 [pralsetinib]" property="inhibition at 1 µM" observed_value=0.843%
compound="CCN1CCN(c2ccc(Nc3cc(N(C)C(=O)Nc4c(Cl)c(OC)cc(OC)c4Cl)ncn3)cc2)CC1 [infigratinib]" property="inhibition at 1 µM" observed_value=-2.7%
